system name: T1, recombinant CD3D&E protein (human CD3-his tag) (human, UniProt P04234 22-105; P07766 23-126, limits assumed)
T1 construct: Analyte in Biacore; also called CD3D&E-His; CD3d&ε-His
T1 sequence (P04234 22-105 limits assumed, chain 1 of 2): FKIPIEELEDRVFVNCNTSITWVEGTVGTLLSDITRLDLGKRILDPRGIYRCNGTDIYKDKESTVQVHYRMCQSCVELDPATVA
T1 sequence (P07766 23-126 limits assumed, chain 2 of 2): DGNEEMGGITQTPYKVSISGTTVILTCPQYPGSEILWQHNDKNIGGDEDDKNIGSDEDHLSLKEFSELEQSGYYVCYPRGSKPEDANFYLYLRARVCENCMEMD
run description: SPR Biacore, Ab captured on Protein A;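 further: humanized antibodies on a Protein A chip, human CD3-his analyte flowed over in serial dilutions for 3 min, dissociation tracked 120–360 s on a Biacore T200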
metric: koff

{"columns": ["binder", "result"],
 "data": [
  ["Hu192A7B9-7 (antibody, V domains shown, humanized mAb) VH: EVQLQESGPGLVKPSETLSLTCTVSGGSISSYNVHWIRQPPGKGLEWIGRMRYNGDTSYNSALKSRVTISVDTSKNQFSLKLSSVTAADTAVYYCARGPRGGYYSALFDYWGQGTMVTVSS VL: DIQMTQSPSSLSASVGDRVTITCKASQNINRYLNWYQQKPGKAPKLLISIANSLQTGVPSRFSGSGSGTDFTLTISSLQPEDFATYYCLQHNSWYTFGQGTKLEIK", "0.0151 s⁻¹"],
  ["Hu155A9B1-4 (antibody, V domains shown, humanized mAb) VH: EVQLQESGPGLVKPSETLSLTCTVSGGSISSYNVHWVRQPPGKGLEWMGRVRYNGDTSYNSALKSRLTISRDTSKNQFSLKLSSVTAADTAVYYCTRGPYGGSSEPLFDYWGQGTMVTVSS VL: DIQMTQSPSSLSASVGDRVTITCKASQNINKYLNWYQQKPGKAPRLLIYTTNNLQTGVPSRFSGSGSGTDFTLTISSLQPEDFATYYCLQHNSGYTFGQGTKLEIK", "0.00648 s⁻¹"]
]}
